- Procedure text: inhibitors of the yeast RAM network, primary screen, dse1pr::URA3 reporter, 5-FOA selection (AID 868);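 further: inhibition rescues growth on 5-FOA so higher OD means more RAM inhibition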
- Measurement context: S. cerevisiae dse1pr::URA3 reporter, 5-FOA growth OD615, 2 d; at 50 µM; analog-sensitive cbk1-as2 kinase mutant strain
Hit rate of the full screen: of about 190,000 compounds, about 3,500 (1.8%) were called active.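 How the source made its calls: active means inhibition above a set limit, 3 SD over mean compound inhibition (cut at about 8.4% in these data); inactive means the rest.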 For the sample, actives were picked, then their nearest neighbours and some compounds at random.
Return exactly one item of active, inactive

Example entries and their recorded answers appear below.
1. Cc1cc2ccccc2n1CCC(=O)O : inactive
2. CCc1nnc(NC(=O)CCC(=O)NCc2ccccc2OC)s1 : inactive
3. CCOc1ccc(C(=O)Nc2cc(OC)ccc2OC)cc1 : inactive
4. CC1CCN(C(=S)c2cccc([N+](=O)[O-])c2)CC1 : inactive
5. C=CCOC(=O)C1=C[C@@H](c2ccccc2)C[C@@H](OCc2ccc(CO)cc2)O1 : inactive
6. CCOC(=O)c1c(NC(=O)CCC(=O)NCc2ccco2)sc2c1CCCC2 : active
7. COc1c(Br)cc2c(C)c(C(=O)N3CCOCC3)oc2c1Br : active
8. O=C(NN=C1CCC(=NNC(=O)c2cccnc2)CC1)c1cccnc1 : inactive

## Task What was the test verdict on N#C/C(=C\c1ccccc1C(F)(F)F)C(=O)Nc1ccccc1F ?
## Result inactive

## Task Any idea what this test logged for COc1ccccc1CNC(=O)CCn1c(=O)sc2ccccc21 ?
## Result active

## Task Please share the test call associated with C=CCn1c(SCC(=O)CC(=O)OCC)nc2cc(C(=O)N3CCC(C(N)=O)CC3)ccc2c1=O .
## Result inactive

## Task Fill in: this test's call for CCOC(=O)c1c(NC(=S)NC(=O)c2ccco2)sc2c1CCCC2 is ___
## Result inactive

## Task Which outcome did this test record for the compound COc1ccc(C(=O)/C=C/c2ccc(OC3CSC3)cc2)cc1 ?
## Result active

## Task For Cc1ccc(-c2csc(NC(=O)c3cccs3)n2)cc1 , which call appears in the assay record?
## Result inactive

## Task Given Cc1cc(C)c(C#N)c(SCC(=O)NN2CC(=O)N(c3ccccc3F)CC2=O)n1 , state the outcome it received in this test.
## Result inactive

## Task Tell me the recorded outcome of this test for O=C(NCc1ccccc1)C1=C[C@@H](C2CCCCC2)C[C@@H](OCc2ccc(CO)cc2)O1 .
## Result active

## Task So what was the verdict on CCOc1cc(NS(=O)(=O)c2ccc(OC)cc2)c(OCC)cc1NC(C)=O in this test?
## Result inactive

## Task Each compound tested received a call. Report the one for CCOc1cc(NC(=O)c2ccccn2)c(OCC)cc1NC(=O)c1ccc(OC)cc1 .
## Result active

## Task Returns: the outcome recorded for Cc1ccc(S(=O)(=O)N2CCOCC2)cc1C(=O)OC1CCCCC1=O (stereo not drawn) in this assay.
## Result inactive

## Task For N#Cc1c(C(F)(F)F)cc(-c2ccccc2)nc1SCC(=O)N1CCOCC1 , which call appears in the assay record?
## Result inactive

## Task Tell me the assay call for COC(=O)c1cc2nc(-c3ccccc3)cc(C(F)(F)F)n2n1 please.
## Result inactive

## Task What was the test verdict on Cc1ccc(C(C)NC(=O)Cn2nc(C)c([N+](=O)[O-])c2C)cc1 (stereo not drawn) ?
## Result inactive

## Task Hi team, can someone confirm the assay call for Fc1ccccc1Cn1cnc(NC(=S)NCCc2ccccc2)n1 ?
## Result inactive

Source of measurements: PubChem BioAssay AID868
